target entity: T1, chimeric construct (CHIM) (human)
T1 construct: CEACAM6 AA 1-273 joined to the membrane-peripheral region containing domain B3 of CEA (AA 596-687), C-terminal 6xHis; also called chimeric CEA
T1 chain: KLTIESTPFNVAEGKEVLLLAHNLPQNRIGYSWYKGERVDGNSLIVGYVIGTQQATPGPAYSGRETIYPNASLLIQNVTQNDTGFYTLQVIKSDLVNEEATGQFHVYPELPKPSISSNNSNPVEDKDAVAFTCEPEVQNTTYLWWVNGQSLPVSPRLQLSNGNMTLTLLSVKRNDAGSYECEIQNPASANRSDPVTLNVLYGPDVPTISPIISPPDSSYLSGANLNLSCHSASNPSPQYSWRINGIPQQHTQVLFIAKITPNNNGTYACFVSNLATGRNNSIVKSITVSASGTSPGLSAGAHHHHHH
assay explanation: SPR; binding to CHIM
Each entry gets NOT MET if its kon stays under 20000 M⁻¹ s⁻¹, and MET if its kon is 20000 M⁻¹ s⁻¹ or above.

Here's what some known entries look like.
binder: BGA1789 (antibody, human IgG1, V domains shown, Built on the BGA7592-1F-ph-M (BGA2433) template; human IgG1/kappa) VH: QVQLVQSGAEVKKPGASVKVSCKASGYIFTSYWLHWVRQAPGQGLEWIGYINPQTGYTSYAQKFQGRVTMTRDTSTSTVYMELSSLRSEDTAVYYCAREYGNYNYPLDYWGQGTLVTVSS VL: DIQMTQSPSSLSASVGDRVTITCRASENQYGYLAWYQQKPGKVPKLLIYNYKNLVEGVPSRFSGSGSGTDFTLTISSLQPEDVATYYCQHHLGTPYTFGQGTKVEIK
category: MET

binder: BGA0089 (antibody, human IgG1, V domains shown, Built on the BGA7592-1F-ph-M (BGA2433) template; human IgG1/kappa) VH: QVQLVQSGAEVKKPGASVKVSCKASGYIFTSYWLHWVRQAPGQGLEWIGYINPQTGYTNYAQKFQGRVTMTRDTSTSTVYMELSSLRSEDTAVYYCAREYGNYNYPLDYWGQGTLVTVSS VL: DIQMTQSPSSLSASVGDRVTITCRASENQYGYLAWYQQKPGKVPKLLIYNTKNLVEGVPSRFSGSGSGTDFTLTISSLQPEDVATYYCQHHLGTPYTFGQGTKVEIK
category: NOT MET

Query: Could you tell me if the measured kon of BGA6710 (antibody, human IgG1, V domains shown, BGA2433 with W33Y (VH) and T51Y (VL); wild-type human IgG1 format) VH: QVQLVQSGAEVKKPGASVKVSCKASGYIFTSYYLHWVRQAPGQGLEWIGYINPQTGYTSYAQKFQGRVTMTRDTSTSTVYMELSSLRSEDTAVYYCAREYGNYNYPLDYWGQGTLVTVSS VL: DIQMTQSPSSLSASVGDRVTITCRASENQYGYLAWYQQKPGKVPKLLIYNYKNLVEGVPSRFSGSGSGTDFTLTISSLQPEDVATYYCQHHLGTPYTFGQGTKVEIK reaches 20000 M⁻¹ s⁻¹ or more?
Result: MET
